target-desc: α1A adrenoceptor (Rattus norvegicus, UniProt P43140)
Construct: from tissue; host or cells: rat submaxillary gland membranes
Sequence (P43140 whole entry): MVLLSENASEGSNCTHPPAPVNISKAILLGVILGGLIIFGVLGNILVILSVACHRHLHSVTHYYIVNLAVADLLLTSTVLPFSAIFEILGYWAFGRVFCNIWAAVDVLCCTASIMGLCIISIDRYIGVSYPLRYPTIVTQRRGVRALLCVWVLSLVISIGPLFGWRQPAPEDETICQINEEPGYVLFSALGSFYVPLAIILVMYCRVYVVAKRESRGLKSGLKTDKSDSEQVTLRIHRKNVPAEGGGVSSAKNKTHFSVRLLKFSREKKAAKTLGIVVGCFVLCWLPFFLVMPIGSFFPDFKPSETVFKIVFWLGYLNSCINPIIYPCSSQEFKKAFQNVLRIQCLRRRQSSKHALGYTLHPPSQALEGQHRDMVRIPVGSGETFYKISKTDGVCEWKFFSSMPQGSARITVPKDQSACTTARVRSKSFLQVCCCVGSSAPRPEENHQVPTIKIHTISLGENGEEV
method: Radioligand binding, [3H] prazosin displacement, rat submaxillary membranes
conditions-used: ratio of binding affinities, rat liver / rat submaxillary
measured-property: α1B/α1A

Consider the worked cases shown below.
CCOc1ccccc1N1CCN(CCCN2C(=O)C3CCC(O)CC3C2=O)CC1.Cl (stereo not shown) = 65
CC(C)Oc1ccccc1N1CCN(C(=O)CCN2C(=O)CCCC2=O)CC1.Cl = 1

A: Cl.O=C1CCCC(=O)N1CC(O)CN1CCN(c2ccccc2O)CC1 (stereo not shown)
B: CC(C)Oc1c(O)cccc1N1CCN(CCCN2C(=O)CCCC2=O)CC1.Cl
Q) Select one: A or B . Criterion: greater recorded α1B/α1A. State your choice using its label.
A) B
